Consider the following molecules and their measured Inhibition rate readings.
- Test system: CRD-induced abdominal flexion reflex behaviors
- Assay Remarks: Abdominal pain model (CRD-induced abdominal pain in rats)
- Type: in vivo, rat (Wistar, male)
- Assay Context: 10 mg/kg oral, 30 min before distension; abdominal flexion reflex behaviors at internal pressure of 45 mmHg
Measurement Name: Inhibition rate (%)

>  <Molecule>
COC[C@@H](O)CNCC(=O)N1CCc2ccccc2[C@@H]1C1CCCCC1 [Example 157]

>  <Measurement Name>
Inhibition rate

>  <Reported>
59

$$$$
>  <Molecule>
COc1cccc2c1[C@H](c1ccccc1)N(C(=O)CNC[C@@H](C)O)CC2 [Example 435]

>  <Measurement Name>
Inhibition rate

>  <Reported>
46

$$$$
>  <Molecule>
CCc1ccc2c(c1)[C@H](COC)N(C(=O)CNCC1(O)CCCCC1)CC2 [Example 436]

>  <Measurement Name>
Inhibition rate

>  <Reported>
56

$$$$
>  <Molecule>
COc1ccc2c(c1)CCN(C(=O)CNCC1(O)CCCCC1)[C@H]2C(C)C [Example 415]

>  <Measurement Name>
Inhibition rate

>  <Reported>
60

$$$$
>  <Molecule>
COC[C@@H](O)CNCC(=O)N1CCc2ccccc2[C@@H]1Cc1ccccc1C(F)(F)F [Example 433]

>  <Measurement Name>
Inhibition rate

>  <Reported>
43

$$$$

---

Consider the following molecules and their measured Inhibition rate readings.
- Tested on: formalin-induced pain behaviors
- Assay Remarks: Nociceptive pain model (mouse formalin test)
- Type: in vivo, mice (ddY, male)
- Assay Context: 100 mg/kg oral, 30 min before formalin; pain behaviors 15 to 25 min after formalin, vs vehicle

>  <Input Smiles>
O=C(CNCC1(O)CCCCC1)N1CCc2ccccc2[C@@H]1C1CCCCC1

>  <Inhibition rate, %>
52

$$$$
>  <Input Smiles>
COC[C@@H](O)CNCC(=O)N1CCc2ccccc2[C@@H]1C1CCCCC1

>  <Inhibition rate, %>
52

$$$$
>  <Input Smiles>
CCc1ccc2c(c1)[C@H](COC)N(C(=O)CNCC1(O)CCCCC1)CC2

>  <Inhibition rate, %>
55

$$$$
>  <Input Smiles>
COc1cccc2c1[C@H](c1ccccc1)N(C(=O)CNC[C@@H](C)O)CC2

>  <Inhibition rate, %>
77

$$$$
>  <Input Smiles>
COC[C@@H](O)CNCC(=O)N1CCc2ccccc2[C@@H]1Cc1ccccc1C(F)(F)F

>  <Inhibition rate, %>
60

$$$$

---

- Tested on: loperamide-induced bead transit delay
- Assay Remarks: Spastic constipation model (loperamide-induced colorectal bead transit delay test in mice)
- Type: in vivo, mouse (ddY, male)
- Assay Context: 3 mg/kg oral, concurrently with loperamide 0.3 mg/kg s.c.; bead excretion time
- Protocol: A 3-mm diameter glass bead is deeply inserted at a depth of 2 cm into the anus of the mouse (ddY, male, 6 weeks old), and the time taken for excretion of the bead is measured. […] With improving effects on the loperamide-induced bead transit delay, a bowel movement-improving action of the test compound on spastic constipation was evaluated. The test compound was orally administered concurrently with administration of loperamide (30 minutes before the insertion of the bead). […]
Measurement Name: Inhibition rate (%)

>  <Input Smiles>
COC[C@@H](O)CNCC(=O)N1CCc2ccccc2[C@@H]1C1CCCCC1

>  <Measurement Name>
Inhibition rate

>  <Units Symbol>
%

>  <Reported>
40

$$$$
>  <Input Smiles>
CCc1ccc2c(c1)[C@H](COC)N(C(=O)CNCC1(O)CCCCC1)CC2

>  <Measurement Name>
Inhibition rate

>  <Units Symbol>
%

>  <Reported>
59

$$$$
>  <Input Smiles>
COc1ccc2c(c1)CCN(C(=O)CNCC1(O)CCCCC1)[C@H]2C(C)C

>  <Measurement Name>
Inhibition rate

>  <Units Symbol>
%

>  <Reported>
88

$$$$
>  <Input Smiles>
COc1cccc2c1[C@H](c1ccccc1)N(C(=O)CNC[C@@H](C)O)CC2

>  <Measurement Name>
Inhibition rate

>  <Units Symbol>
%

>  <Reported>
67

$$$$
>  <Input Smiles>
COC[C@@H](O)CNCC(=O)N1CCc2ccccc2[C@@H]1Cc1ccccc1C(F)(F)F

>  <Measurement Name>
Inhibition rate

>  <Units Symbol>
%

>  <Reported>
73

$$$$
